# Test system: MDA-MB231 cells
# protocol summary: MTT cell viability assay, MDA-MB231
# Type: cell-based
# measurement setup: Homo sapiens, MDA-MB-231; 72 h treatment, MTT; read-out: IC50 MDA-MB231
measured quantity: IC50 (µM)
Hi! Could you send only the number? It should be in µM, unit omitted.

# count of solved cases: 2
| compound | experimental target | measured number |
| --- | --- | --- |
| O=C(O)c1cn(C2CC2)c2cc(N3CCNCC3)c(F)cc2c1=O [Cip, Ciprofloxacin, reference compound] | MDA-MB231 cells | 19.9 |
| CCn1cc(C(=O)O)c(=O)c2cc(F)c(N3CCN(CCNc4ccc([N+](=O)[O-])c(C(F)(F)F)c4)CC3)cc21 [Compound 7c] | MDA-MB231 cells | 1.52 |

Let's switch to this compound now.
Tell me reported IC50 for CCn1cc(C(=O)O)c(=O)c2cc(F)c(N3CCNCC3)cc21 [Nor, Norfloxacin, reference compound] , tested with MDA-MB231 cells.
14.9

====

# System: WH1 human fibroblasts
# protocol summary: MTT cell viability assay, WH1 fibroblasts
# Assay type: cell-based
# measurement setup: Fibroblast, 72 h treatment
Friendly reminder: IC50 below 10 µM is Y, at or above is N.

Solved entries (count: 7):
| compound | class label |
| --- | --- |
| O=C(O)c1cn(C2CC2)c2cc(N3CCN(c4ccc([N+](=O)[O-])c(C(F)(F)F)c4)CC3)c(F)cc2c1=O [Compound 1a] | Y |
| COC(=O)c1cn(C2CC2)c2cc(N3CCN(c4ccc([N+](=O)[O-])c(C(F)(F)F)c4)CC3)c(F)cc2c1=O [Compound 3a] | Y |
| CCn1cc(C(=O)O)c(=O)c2cc(F)c(N3CCN(c4ccc([N+](=O)[O-])c(C(F)(F)F)c4)CC3)cc21 [Compound 1b] | Y |
| CCn1cc(C(=O)O)c(=O)c2cc(F)c(N3CCN(CCCNc4ccc([N+](=O)[O-])c(C(F)(F)F)c4)CC3)cc21 [Compound 7d] | Y |
| CCn1cc(C(=O)OC)c(=O)c2cc(F)c(N3CCN(CCNc4ccc([N+](=O)[O-])c(C(F)(F)F)c4)CC3)cc21 [Compound 6c] | N |
| CCn1cc(C(=O)O)c(=O)c2cc(F)c(N3CCNCC3)cc21 [Nor, Norfloxacin, reference compound] | N |
| COC(=O)c1cn(C2CC2)c2cc(N3CCN(CCNc4ccc([N+](=O)[O-])c(C(F)(F)F)c4)CC3)c(F)cc2c1=O [Compound 6a] | N |

Next compound, please.
I wonder whether O=C(O)c1cn(C2CC2)c2cc(N3CCN(CCNc4ccc([N+](=O)[O-])c(C(F)(F)F)c4)CC3)c(F)cc2c1=O [Compound 7a] has IC50 below 10 µM. Can you tell?
Y

====

# Test system: HCT116 cells
# protocol summary: MTT cell viability assay, HCT116
# Assay type: cell-based
# measurement setup: Homo sapiens, HCT-116; supplement csv, unit inferred; read-out: HCT116 IC50
As shown below, each of these molecules has a reported IC50 value.

| chemical structure | result |
| --- | --- |
| CCn1cc(C(=O)O)c(=O)c2cc(F)c(N3CCN(c4ccc([N+](=O)[O-])c(C(F)(F)F)c4)CC3)cc21 | 10.4 µM |
| CCn1cc(C(=O)OC)c(=O)c2cc(F)c(N3CCN(CCNc4ccc([N+](=O)[O-])c(C(F)(F)F)c4)CC3)cc21 | 12.4 µM |
| O=C(O)c1cn(C2CC2)c2cc(N3CCN(c4ccc([N+](=O)[O-])c(C(F)(F)F)c4)CC3)c(F)cc2c1=O | 9.67 µM |
| CCn1cc(C(=O)OC)c(=O)c2cc(F)c(N3CCN(c4ccc([N+](=O)[O-])c(C(F)(F)F)c4)CC3)cc21 | 9.73 µM |

Let's switch to this molecule now.
For the molecule CCn1cc(C(=O)OC)c(=O)c2cc(F)c(N3CCN(CCCNc4ccc([N+](=O)[O-])c(C(F)(F)F)c4)CC3)cc21 , what IC50 is on record?
11.7 µM
